# study_system: Troponin I, cardiac muscle (Homo sapiens) + Troponin T, cardiac muscle (Homo sapiens) + Troponin C, slow skeletal and cardiac muscles (Homo sapiens) (UniProt P19429+P45379+P63316)
# procedure_summary: cardiac RTF calcium sensitivity activators, confirmation, biochemical, IANBD-TnC fluorescence, triplicate (AID 504383)
# test_context: IANBD-labeled cardiac RTF, Ca2+ sensitivity fluorescence; at 7.2 µM; stronger effect = higher value; scaled from EC20 to saturating calcium; tested at EC20 calcium, 0.472 mM
The campaign covered roughly 2,500 compounds. About 1,200 (48%) were called active. The set was probably picked from earlier hits. Some of the results follow.
So basically every entry gets a class from its activation, ranges being low: < 10%; medium: ≥ 10% and < 20%; high: ≥ 20%

{"compound": "O=C1S/C(=C/c2ccc(N3CCOCC3)o2)C(=O)N1Cc1ccc(F)cc1", "label_class": "high"}
{"compound": "CCC(CO)[n+]1c(C)cc(/C=C2\\Sc3ccccc3N2Cc2ccccc2)cc1C (stereo unspecified)", "label_class": "low"}
{"compound": "Nc1ccc2c3c(cccc13)C(=O)N(c1ccccc1)C2=O", "label_class": "medium"}
{"compound": "COc1cccc(C(=O)NC2CC3CCCC(C2)N3CC(=O)Nc2ccc(N(C)C)cc2)c1 (stereo unspecified)", "label_class": "high"}
{"compound": "O=C(NCC(=O)N(CC1CCCO1)C1(C(=O)NC2CCCCC2)CCCCC1)c1ccccc1 (stereo unspecified)", "label_class": "low"}
{"compound": "Cc1cc2cc(C=C(C#N)C#N)c(Cl)nc2cc1C", "label_class": "low"}
{"compound": "O=C(NC1CCCCC1)c1cc2nc3c(c(C(F)(F)F)n2n1)CCCC3", "label_class": "high"}
{"compound": "O=C1CCN2C=Nc3cccc4ccc1c2c34", "label_class": "medium"}
{"compound": "O=C(COc1ccc(Cl)cc1[N+](=O)[O-])N1CCCCC1", "label_class": "high"}
{"compound": "Cc1cc(C)c(S(=O)(=O)Nc2ccc3[nH]c(=O)[nH]c3c2)c(C)c1", "label_class": "high"}
{"compound": "O=C(NC(=S)NCC1CCCO1)C(c1ccccc1)c1ccccc1 (stereo unspecified)", "label_class": "medium"}
